- targetEntity: T1, human CD277 (human, UniProt O00481 30-254, limits assumed)
- T1 construct: The SPR method text speaks of 'purified recombinant his tagged human CD137', apparently an error for CD277; also called BTN3A1; human CD277 polypeptides
- T1 sequence (O00481 30-254 limits assumed): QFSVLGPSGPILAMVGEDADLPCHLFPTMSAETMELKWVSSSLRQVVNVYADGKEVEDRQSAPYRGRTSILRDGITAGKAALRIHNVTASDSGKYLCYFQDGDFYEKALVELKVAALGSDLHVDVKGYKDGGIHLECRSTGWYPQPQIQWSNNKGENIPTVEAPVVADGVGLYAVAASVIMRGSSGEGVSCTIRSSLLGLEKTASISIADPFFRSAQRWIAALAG
- methodSummary: SPRi (Carterra MX96), antibody printed on chip, his-tagged antigen injected, 1:1 fit
pKd: −log10 of the molar value.
Examples of binders with documented pKd follow.
attributeMeasured: pKd

binder="anti-CD277 antibody mAb2 (antibody, human IgG1, kappa, N297A, V domains shown) VH: QVQLVQSGAEVKKPGASVKVSCKASGYTFSNYYIHWVRQAPGQGLEWMGWINANSGGTKYAQKFQGRVTMTRDTSISTAYMELSRLRSDDTAVYYCARRHSDMIGYYYGMDVWGQGTTVTVSS VL: DIQMTQSPSSLSASVGDRVTITCRASQSIDRYLNWYQQKPGKAPKLLIYAASRLQSGVPSRFSGSGSGTDFTLTISSLQPEDFATYYCQQANSFPPTFGQGTRLEIKR" experimentalresult=8.57
binder="anti-CD277 antibody mAb4 (antibody, human IgG1, kappa, N297A, V domains shown) VH: QVQLVQSGAEVKKPGASVKVSCKASGYTFTNYYMHWVRQAPGQGLEWMGWINVNSGVTKYAQKFQGRVTMTRDTSISTAYMELSRLRSDDTAVYYCARRHSDMIGYYYGMDVWGQGTTVTVSS VL: DIQMTQSPSSVSASVGDRVTITCRASQGISSWLAWYQQKPGKAPKLLIYAASSLQSGVPSRFSGSGSGTDFTLTISSLQPEDFATYYCQQATDFPPTFGGGTKVEIKR" experimentalresult=8.00
binder="anti-CD277 antibody mAb3 (antibody, human IgG1, kappa, N297A, V domains shown) VH: QVQLVQSGAEVKKPGASVKVSCKASGYTFNGYYIHWVRQAPGQGLEWMGWINSNSGGTKYAQKFQGRVTMTRDTSISTAYMELSRLRSDDTAVYYCARRHSDMIGYYYGMDVWGQGTTVTVSS VL: DIQMTQSPSSVSASVGDRVTITCRASQGISSWLAWYQQKPGKAPKLLIYAASSLQSGVPSRFSGSGSGTDFTLTISSLQPEDFATYYCQQATDFPPTFGGGTKVEIKR" experimentalresult=8.17
binder="anti-CD277 antibody mAb9 (antibody, V domains shown) VH: QVQLVQSGAEVKKPGASVKVSCKASGYTFNGYYIHWVRQAPGQGLEWMGWINSNSGGTKYAQKFQGRVTMTRDTSISTAYMELSRLRSDDTAVYYCARRHSDMIGYYYGMDVWGQGTTVTVSS VL: DIQLTQSPSSLSASVGDRVTITCRASQSISSYLNWYQQKPGKVPKLLIYAASTLQSGVPSRFSGSGSGTDFTLTISSLQPEDFATYSCQQTNSFPPTFGQGTKVEIKR" experimentalresult=8.17
binder="anti-CD277 antibody mAb5 (antibody, human IgG1, kappa, N297A, V domains shown) VH: QVQLVQSGAEVKKPGASVKVSCKASGYTFSNYYIHWVRQAPGQGLEWMGWINANSGGTKYAQKFQGRVTMTRDTSISTAYMELSRLRSDDTAVYYCARRHSDMIGYYYGMDVWGQGTTVTVSS VL: DIQMTQSPSSVSASVGDRVTITCRASQGISSWLAWYQQKPGKAPKLLIYAASSLQSGVPSRFSGSGSGTDFTLTISSLQPEDFATYYCQQATDFPPTFGGGTKVEIKR" experimentalresult=7.89
binder="anti-CD277 antibody mAb11 (antibody, human IgG1, kappa, N297A, V domains shown) VH: QVQLVQSGAEVKKPGASVKVSCKASGYTFSNYYIHWVRQAPGQGLEWMGWINANSGGTKYAQKFQGRVTMTRDTSISTAYMELSRLRSDDTAVYYCARRHSDMIGYYYGMDVWGQGTTVTVSS VL: DIQMTQSPSSLSASVGDRVTITCRASQSISSYLNWYQQKPGKAPKLLIYAASSLQSGVPSRFSGSGSGTDFTLTISSLQPEDFATYYCQQANTFPPTFGQGTRLEIKR" experimentalresult=8.29
binder="anti-CD277 antibody mAb10 (antibody, human IgG1, kappa, N297A, V domains shown) VH: QVQLVQSGAEVKKPGASVKVSCKASGYTFTNYYMHWVRQAPGQGLEWMGWINVNSGVTKYAQKFQGRVTMTRDTSISTAYMELSRLRSDDTAVYYCARRHSDMIGYYYGMDVWGQGTTVTVSS VL: DIQMTQSPSSLSASVGDRVTITCRASQSISSYLNWYQQKPGKAPKLLIYAASSLQSGVPSRFSGSGSGTDFTLTISSLQPEDFATYYCQQANTFPPTFGQGTRLEIKR" experimentalresult=8.33
